Source of measurements: the RNAGym collection of RNA variant scans (doi:10.1093/molbev/msab373)

B1: Azoarcus group I ribozyme (parent)
chain: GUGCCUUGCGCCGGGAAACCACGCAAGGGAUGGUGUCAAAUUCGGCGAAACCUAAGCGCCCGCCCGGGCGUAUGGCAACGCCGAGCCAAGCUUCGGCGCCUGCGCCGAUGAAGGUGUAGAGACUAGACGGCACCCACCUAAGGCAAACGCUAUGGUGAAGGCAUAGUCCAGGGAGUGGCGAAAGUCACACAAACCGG

Variants of: B1
Test: reverse-splicing fitness (ratio to wild type); higher = more active; in vitro selection; Mg2+ level not given
Assign classes using reported reverse-splicing fitness values and the ranges class 1 = under 0.007, class 2 = from 0.007 up to 0.01, class 3 = 0.01 and over, please.

-- ask // bin(item) where item = C82A A120U C150A C169A U176G
-- reply class 1

-- ask Classify this variant: C82U A111C A120G A145C C150U C169A U176G
-- reply class 1

-- ask Hi, small favor: classify C150G C169G U176C by its reverse-splicing fitness when you get a moment.
-- reply class 2

-- ask Which reverse-splicing fitness band matches C82G A111U A145G C150A U176C ?
-- reply class 3

-- ask Into which bin does this variant go? C82G A111G A120G A145C C150A C169U
-- reply class 2

-- ask Could you tell me which band C82G A145C C150U C169U U176C belongs to?
-- reply class 2

-- ask Into which category would you place C82A A111U A120G A145U U176C ?
-- reply class 3

-- ask Sort C82G A120C A145C C150G U176C into one of the categories.
-- reply class 3

-- ask Band of A111C A145G C150U C169U U176C ?
-- reply class 3

-- ask Bin? C82A A111G A145C C150A C169G
-- reply class 2

-- ask Band for the recorded reverse-splicing fitness of C82A A111G A120U A145G C150G C169G ?
-- reply class 1

-- ask Lab note: which band did C82U A111C A120U A145G C150G C169U land in?
-- reply class 1

-- ask Could you tell me which band A145C C150U C169A belongs to?
-- reply class 3

-- ask Dear colleague, I would appreciate it if you could identify the bin for C82A A120C A145C C150G U176C and reply at your convenience.
-- reply class 3

-- ask Where would C82A A111C A120G C169A U176C land among the classes by reported reverse-splicing fitness?
-- reply class 3

-- ask Kindly identify the class of A120C A145G C150G C169A U176G .
-- reply class 2

-- ask Band for the recorded reverse-splicing fitness of C82A A111C A145U ?
-- reply class 3

-- ask Looking at A120G A145C C169U U176C , which class would you pick?
-- reply class 3

-- ask Exercise: read the entry C82G A111G A120C A145C C150U and state which class it falls under.
-- reply class 3

-- ask Form field 'band' for A111C A120C A145G C150U C169U U176A
-- reply class 3

-- ask Which bin, given its reverse-splicing fitness, does A111C A120C A145U C150G C169G U176C occupy?
-- reply class 1

-- ask Hi, small favor: classify A145U C150G C169A U176G by its reverse-splicing fitness when you get a moment.
-- reply class 1

-- ask Given C82A A111U A120C A145U C150G C169U U176C , name the class its reverse-splicing fitness places it in.
-- reply class 3

-- ask Which class does C82U A111U C169G U176C fall in?
-- reply class 3

-- ask Which bin, given its reverse-splicing fitness, does C82G A111U A120C A145G C169A U176G occupy?
-- reply class 1

-- ask Please let me know in which category the item C82G A120C A145G C169G U176G belongs.
-- reply class 1

-- ask Returns: class label. Input: C82A A111U A120U C150A C169A U176A
-- reply class 1

-- ask Determine which band this variant sits in: C82U A111C A120G A145C C150G C169G
-- reply class 1

-- ask Would you mind sorting A111C A120U A145G C150G C169A U176A into the appropriate category?
-- reply class 3

-- ask Field: class (reverse-splicing fitness) — entry: C82U A111G A120C A145U C150G C169A U176A
-- reply class 2

-- ask Please classify: C82A A111G A120G A145C C150U U176A
-- reply class 2

-- ask Class? Entry: C82A A120U C150G C169U
-- reply class 1

-- ask For the record A111G A120C A145G C150U C169U U176C , report the class its reverse-splicing fitness corresponds to.
-- reply class 3

-- ask Band for the recorded reverse-splicing fitness of A111C A120C A145G C150A U176G ?
-- reply class 3

-- ask Textbook exercise: identify the category of the variant given here, C82A A120C A145G C150U C169A , according to its measured value.
-- reply class 3

-- ask Which reverse-splicing fitness band matches C82A A111G A120G A145G C169A U176C ?
-- reply class 3
